# Test system: Monocotyledonous and dicotyledonous test plants
# assay-notes: Herbicidal action, application pre-emergence (Example B1)
# Type: in vivo
# Set-up: key: 10=total damage to plant; 0=no damage to plant
# assay-conditions: Poa trivialis, 1000 g/ha, evaluated after 9 or 13 days
Reported POATR herbicidal action (damage score 0-10) values for the following molecules.
# respond with the number and nothing more

Form field POATR herbicidal action (damage score 0-10) for item CC1(C)ON=C([S+]([O-])Cc2c(F)cccc2F)C1F (single isomer, unassigned) [1.15] on Monocotyledonous and dicotyledonous test plants: 10

Form field POATR herbicidal action (damage score 0-10) for item COc1cc(CS(=O)(=O)C2=NOC(C)(C)C2F)n(C)n1 (stereo not shown) [6.13] on Monocotyledonous and dicotyledonous test plants: 10

Form field POATR herbicidal action (damage score 0-10) for item Cc1nn(C)nc1C[S+]([O-])C1=NOC(C)(C)C1F (single isomer, unassigned) [7.03] on Monocotyledonous and dicotyledonous test plants: 10

Form field POATR herbicidal action (damage score 0-10) for item CC1(C)ON=C(S(=O)(=O)Cc2nn(C3CCCC3)nc2C(F)(F)F)C1F (stereo not shown) [7.14] on Monocotyledonous and dicotyledonous test plants: 8

---

# Tested on: Monocotyledonous and dicotyledonous test plants
# assay-notes: Herbicidal action, application pre-emergence (Example B1)
# Format: in vivo
# Design: key: 10=total damage to plant; 0=no damage to plant
# assay-conditions: Agrostis-tenius, 1000 g/ha, evaluated after 9 or 13 days
readout: AGSTE herbicidal action (damage score 0-10)
# respond with the number and nothing more

{"columns": ["compound", "reported-result"],
 "data": [
  ["CCn1ncc(C[S+]([O-])C2=NOC(C)(C)C2F)n1 (mixture of isomers)", 10],
  ["Cn1nc(OCC(F)(F)F)c(CS(=O)(=O)C2=NOC(C)(C)C2F)c1C(F)(F)F (stereo not shown)", 0]
]}

Item: C#CCn1cc(C[S+]([O-])C2=NOC(C)(C)C2F)c(C(F)(F)F)n1 (mixture of isomers) | AGSTE herbicidal action (damage score 0-10): 10

Item: COc1cc(C[S+]([O-])C2=NOC(C)(C)C2F)n(C)n1 (mixture of isomers) | AGSTE herbicidal action (damage score 0-10): 10

Item: COCCOc1c(CS(=O)(=O)C2=NOC(C)(C)C2F)c(C(F)(F)F)nn1C (stereo not shown) | AGSTE herbicidal action (damage score 0-10): 10

Item: C=CCn1cc(C[S+]([O-])C2=NOC(C)(C)C2F)c(C(F)(F)F)n1 (mixture of isomers) | AGSTE herbicidal action (damage score 0-10): 10

Item: Cn1nc(OC(F)F)c(C[S+]([O-])C2=NOC(C)(C)C2F)c1C(F)(F)F (single isomer, unassigned) [2.30] | AGSTE herbicidal action (damage score 0-10): 10

Item: Cn1nc(C(F)(F)F)c(C[S+]([O-])C2=NOC(C)(C)C2Cl)c1OCC(F)(F)F (stereo not shown) | AGSTE herbicidal action (damage score 0-10): 10

Item: CC(c1c(C(F)(F)F)nn(C)c1OC(F)F)S(=O)(=O)C1=NOC(C)(C)C1F (mixture of isomers) | AGSTE herbicidal action (damage score 0-10): 10

Item: Cn1cc(C(F)(F)F)c(CSC2=NOC(C)(C)C2F)n1 (stereo not shown) | AGSTE herbicidal action (damage score 0-10): 0

Item: Cn1nnc(Br)c1CS(=O)(=O)C1=NOC(C)(C)C1F (stereo not shown) | AGSTE herbicidal action (damage score 0-10): 10

Item: COCCn1nc(CSC2=NOC(C)(C)C2F)c(C(F)(F)F)n1 (stereo not shown) | AGSTE herbicidal action (damage score 0-10): 7

Item: CCn1cc(C[S+]([O-])C2=NOC(C)(C)C2F)c(C(F)(F)F)n1 (mixture of isomers) | AGSTE herbicidal action (damage score 0-10): 10
